Tested on: PC-3
ASSAY_PROTOCOL: Cytotoxicity against human PC3 cells after 48 hrs by MTT assay
Format: functional, cell-based
DETAILS: PC-3, 48 h
pIC50: −log10 of the molar value.
pIC50 values, listed per item

{"columns": ["SAMPLE_SMILES", "TEST_TARGET", "COMPARISON_OPERATOR", "pIC50"],
 "data": [
  ["Cc1ccc(Cn2c(/C=C3\\SC(=S)N(CC(=O)O)C3=O)nc3ccc(Cl)cc32)cc1", "PC-3", "=", 5.82],
  ["Cc1ccc(Cn2c(/C=C3\\SC(=S)N(CCC(=O)O)C3=O)nc3ccccc32)cc1", "PC-3", "=", 5.03],
  ["O=C(O)CN1C(=O)/C(=C/c2nc3cc(Cl)ccc3n2Cc2ccccc2F)SC1=S", "PC-3", "=", 5.46],
  ["COc1ccc2nc(/C=C3\\SC(=S)N(CC(=O)O)C3=O)n(Cc3ccccc3F)c2c1", "PC-3", "<", 4.30],
  ["O=C(O)CN1C(=O)/C(=C/c2nc3ccccc3n2Cc2ccc(Br)cc2F)SC1=S", "PC-3", "=", 4.68],
  ["Cc1ccc(Cn2c(/C=C3\\SC(=S)N(CC(=O)O)C3=O)nc3cc(Cl)ccc32)cc1", "PC-3", "=", 4.57],
  ["CCn1c(/C=C2\\SC(=S)N(CC(=O)O)C2=O)nc2ccccc21", "PC-3", "=", 5.49],
  ["COc1ccc2nc(/C=C3\\SC(=S)N(CC(=O)O)C3=O)n(Cc3ccc(C)cc3)c2c1", "PC-3", "=", 4.79],
  ["O=C(O)CN1C(=O)/C(=C/c2nc3ccccc3n2Cc2ccccc2)SC1=S", "PC-3", "=", 4.97]
]}

---

Test system: Raji
ASSAY_PROTOCOL: Cytotoxicity against human Raji cells after 48 hrs by MTT assay
Format: functional, cell-based
PROPERTY_NAME: log10 of IC50 (log10 of the value in µM)

{"columns": ["SAMPLE_SMILES", "TEST_TARGET", "QUANTITATIVE_READOUT"],
 "data": [
  ["Cc1ccc(Cn2c(/C=C3\\SC(=S)NC3=O)nc3ccccc32)cc1", "Raji", 0.65],
  ["O=C(O)CN1C(=O)/C(=C/c2nc3ccccc3n2Cc2ccc(F)cc2)SC1=S", "Raji", 0.25],
  ["O=C(O)CN1C(=O)/C(=C/c2nc3ccccc3n2Cc2ccccc2)SC1=S", "Raji", 0.59],
  ["Cc1ccc(Cn2c(/C=C3\\SC(=S)N(CC(=O)O)C3=O)nc3cc(F)ccc32)cc1", "Raji", 0.52],
  ["Cc1ccc(C(=O)Cn2c(/C=C3\\SC(=S)N(CC(=O)O)C3=O)nc3ccccc32)cc1", "Raji", 1.09],
  ["COc1ccc2c(c1)nc(/C=C1\\SC(=S)N(CC(=O)O)C1=O)n2Cc1ccc(C)cc1", "Raji", 0.25],
  ["O=C(O)CN1C(=O)/C(=C/c2nc3ccccc3n2CC(=O)c2ccc(Cl)cc2)SC1=S", "Raji", 0.50],
  ["Cc1ccc(Cn2c(/C=C3\\SC(=S)N(CC(=O)O)C3=O)nc3ccc(Cl)cc32)cc1", "Raji", 0.45],
  ["Cc1ccc(Cn2c(/C=C3\\SC(=S)N(CCC(=O)O)C3=O)nc3ccccc32)cc1", "Raji", 0.82],
  ["COc1cc(Cn2c(/C=C3\\SC(=S)N(CC(=O)O)C3=O)nc3ccccc32)cc(OC)c1", "Raji", 0.32],
  ["O=C(O)CN1C(=O)/C(=C/c2nc3ccccc3n2CC(=O)c2ccc(F)cc2)SC1=S", "Raji", 0.92],
  ["O=C(O)CN1C(=O)/C(=C/c2nc3ccc(F)cc3n2Cc2ccccc2F)SC1=S", "Raji", 1.35],
  ["Cc1ccc(Cn2c(/C=C3\\SC(=S)N(CC(=O)O)C3=O)nc3ccccc32)cc1", "Raji", -0.02],
  ["O=C(O)CN1C(=O)/C(=C/c2nc3ccccc3n2Cc2ccc(Br)cc2F)SC1=S", "Raji", 1.06],
  ["O=C(O)CN1C(=O)/C(=C/c2nc3ccccc3n2Cc2ccccc2F)SC1=S", "Raji", 0.09],
  ["O=C1NC(=S)S/C1=C\\c1nc2ccccc2n1Cc1ccccc1F", "Raji", 1.41],
  ["COc1ccc2nc(/C=C3\\SC(=S)N(CC(=O)O)C3=O)n(Cc3ccc(C)cc3)c2c1", "Raji", 1.03],
  ["O=C(O)CN1C(=O)/C(=C/c2nc3ccccc3n2Cc2cccc(F)c2)SC1=S", "Raji", 1.12],
  ["O=C(O)CN1C(=O)/C(=C/c2nc3ccccc3n2Cc2ccc(Br)cc2)SC1=S", "Raji", 0.08],
  ["CCn1c(/C=C2\\SC(=S)N(CC(=O)O)C2=O)nc2ccccc21", "Raji", 0.75]
]}

---

Test system: MDA-MB-231
ASSAY_PROTOCOL: Cytotoxicity against human MDA-MB-231 cells after 48 hrs by MTT assay
Assay type: functional, cell-based
DETAILS: MDA-MB-231, 48 h
pIC50: −log10 of the molar value.

{"columns": ["MOLECULE", "pIC50"],
 "data": [
  ["COc1ccc2c(c1)nc(/C=C1\\SC(=S)N(CC(=O)O)C1=O)n2Cc1ccc(C)cc1", 5.91],
  ["O=C(O)CN1C(=O)/C(=C/c2nc3ccccc3n2Cc2ccc(F)c(F)c2)SC1=S", 5.42],
  ["COc1cc([C@@H]2c3cc4c(cc3[C@@H](O[C@@H]3O[C@@H]5CO[C@@H](C)O[C@H]5[C@H](O)[C@H]3O)[C@H]3COC(=O)[C@H]23)OCO4)cc(OC)c1O [ETOPOSIDE]", 4.52],
  ["O=C(O)CN1C(=O)/C(=C/c2nc3ccccc3n2CC(=O)c2ccc(Cl)cc2)SC1=S", 5.95],
  ["COc1cc(Cn2c(/C=C3\\SC(=S)N(CC(=O)O)C3=O)nc3ccccc32)cc(OC)c1", 5.89],
  ["Cc1ccc(C(=O)Cn2c(/C=C3\\SC(=S)N(CC(=O)O)C3=O)nc3ccccc32)cc1", 4.77],
  ["Cc1ccc(Cn2c(/C=C3\\SC(=S)N(CC(=O)O)C3=O)nc3ccc(F)cc32)cc1", 5.41],
  ["COc1ccc2c(c1)nc(/C=C1\\SC(=S)N(CC(=O)O)C1=O)n2Cc1ccccc1F", 4.77],
  ["COc1ccc2nc(/C=C3\\SC(=S)N(CC(=O)O)C3=O)n(Cc3ccc(C)cc3)c2c1", 5.42]
]}

---

A collection of compounds and their measured IC50
Test system: PC-3
ASSAY_PROTOCOL: Cytotoxicity against human PC3 cells after 48 hrs by MTT assay
Type: functional, cell-based
DETAILS: PC-3, 48 h

{"columns": ["COMPOUND", "READING_UNIT", "COMPARISON_OPERATOR", "IC50"],
 "data": [
  ["COc1cc(Cn2c(/C=C3\\SC(=S)N(CC(=O)O)C3=O)nc3ccccc32)cc(OC)c1", "µM", "=", 6.37],
  ["O=C(O)CN1C(=O)/C(=C/c2nc3cc(F)ccc3n2Cc2ccccc2F)SC1=S", "µM", ">", 50],
  ["Cc1ccc(Cn2c(/C=C3\\SC(=S)N(CC(=O)O)C3=O)nc3ccccc32)cc1", "µM", "=", 2.64],
  ["N#Cc1ccc(Cn2c(/C=C3\\SC(=S)N(CC(=O)O)C3=O)nc3ccccc32)cc1", "µM", "=", 14.4],
  ["O=C(O)CN1C(=O)/C(=C/c2nc3ccc(F)cc3n2Cc2ccccc2F)SC1=S", "µM", ">", 50],
  ["Cc1ccc(Cn2c(/C=C3\\SC(=S)N(CC(=O)O)C3=O)nc3ccc(F)cc32)cc1", "µM", "=", 5.82],
  ["O=C(O)CN1C(=O)/C(=C/c2nc3ccccc3n2CC(=O)c2ccc(F)cc2)SC1=S", "µM", "=", 9.87],
  ["COc1cc([C@@H]2c3cc4c(cc3[C@@H](O[C@@H]3O[C@@H]5CO[C@@H](C)O[C@H]5[C@H](O)[C@H]3O)[C@H]3COC(=O)[C@H]23)OCO4)cc(OC)c1O [ETOPOSIDE]", "µM", "=", 13.2]
]}

---

Test system: HL-60
ASSAY_PROTOCOL: Cytotoxicity against human HL60 cells after 48 hrs by MTT assay
Assay type: functional, cell-based
DETAILS: HL-60, 48 h
pIC50: −log10 of the molar value.

{"columns": ["SAMPLE_SMILES", "pIC50"],
 "data": [
  ["O=C(O)CN1C(=O)/C(=C/c2nc3ccccc3n2Cc2cccc(F)c2)SC1=S", 5.14],
  ["O=C(O)CN1C(=O)/C(=C/c2nc3ccccc3n2Cc2ccc(F)c(F)c2)SC1=S", 5.56],
  ["Cc1ccc(Cn2c(/C=C3\\SC(=S)N(CC(=O)O)C3=O)nc3cc(Cl)ccc32)cc1", 5.57],
  ["O=C(O)CCN1C(=O)/C(=C/c2nc3ccccc3n2Cc2ccccc2F)SC1=S", 5.24],
  ["O=C(O)CN1C(=O)/C(=C/c2nc3ccccc3n2Cc2ccc(F)cc2F)SC1=S", 5.19]
]}
